Molecular target: GBA3 (Homo sapiens, UniProt Q9H227)
Construct: expressed in transfected cells; host or cells: HEK293T (GBA/GBA2 KO background for the fluorogenic assay; endogenous-GBA background with GBA2 and GBA3 overexpressed for ABPP and intact-cell assays)
Sequence (Q9H227 1-469): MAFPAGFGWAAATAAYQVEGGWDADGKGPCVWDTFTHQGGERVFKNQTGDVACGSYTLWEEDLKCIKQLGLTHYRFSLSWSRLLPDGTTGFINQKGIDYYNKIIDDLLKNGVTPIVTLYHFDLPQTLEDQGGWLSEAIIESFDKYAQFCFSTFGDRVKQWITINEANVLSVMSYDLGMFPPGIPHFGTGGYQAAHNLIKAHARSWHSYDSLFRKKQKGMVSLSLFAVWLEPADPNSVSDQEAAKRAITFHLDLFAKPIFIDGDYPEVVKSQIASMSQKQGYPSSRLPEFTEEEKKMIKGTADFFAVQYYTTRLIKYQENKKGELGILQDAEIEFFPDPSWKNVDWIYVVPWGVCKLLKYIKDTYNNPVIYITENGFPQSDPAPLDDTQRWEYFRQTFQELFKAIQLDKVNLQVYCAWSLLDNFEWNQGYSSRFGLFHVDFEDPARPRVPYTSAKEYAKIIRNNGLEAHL
Test: Competitive ABPP (cABPP) with ABP 10 in HEK293T cell lysates, GBA3
Type: biochemical
Settings: cell lysate, 30 min incubation
Assay Endpoint: competition of ABP 10 labeling of GBA3

compound="OC[C@@H]1[C@@H](O)[C@H](O)[C@@H](O)[C@@H]2N[C@H]12 [compound 4, cyclophellitol aziridine, reference compound]" assay_endpoint="competition of ABP 10 labeling of GBA3" data_value="with less potency"
compound=OC[C@@H]1[C@@H](O)[C@H](O)[C@@H](O)[C@@H]2O[C@H]12 assay_endpoint="competition of ABP 10 labeling of GBA3" data_value="with less potency"

====

Target: rhGBA (recombinant human GBA, Imiglucerase) (Homo sapiens, UniProt P04062, R534H)
Construct: purchased Sanofi Genzyme (Cambridge, MA, USA)
Sequence (P04062 40-536 R534H): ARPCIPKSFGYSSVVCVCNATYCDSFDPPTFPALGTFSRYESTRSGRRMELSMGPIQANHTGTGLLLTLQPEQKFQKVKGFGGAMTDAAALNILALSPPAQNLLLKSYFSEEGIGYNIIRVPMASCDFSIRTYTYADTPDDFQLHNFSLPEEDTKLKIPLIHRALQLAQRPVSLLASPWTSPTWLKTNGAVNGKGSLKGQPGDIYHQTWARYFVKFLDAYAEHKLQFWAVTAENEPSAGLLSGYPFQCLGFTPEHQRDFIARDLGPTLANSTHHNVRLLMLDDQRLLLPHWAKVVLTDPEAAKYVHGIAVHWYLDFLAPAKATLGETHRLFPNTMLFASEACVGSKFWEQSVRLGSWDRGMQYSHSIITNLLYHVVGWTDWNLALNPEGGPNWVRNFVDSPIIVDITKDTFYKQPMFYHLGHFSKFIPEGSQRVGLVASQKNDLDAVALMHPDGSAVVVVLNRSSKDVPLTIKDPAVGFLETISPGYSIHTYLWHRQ
Experiment: Fluorogenic substrate (4-MU-β-D-glucoside) enzymatic assay, rhGBA
Assay type: biochemical
pIC50: −log10 of the molar value.
Assay Endpoint: pIC50

compound="O[C@H]1[C@H](O)[C@@H](O)[C@@H]2N[C@@H]2[C@@H]1O [compound 14, conduritol B‐aziridine, reference compound]" data_value=5.79

====

Biological target: GBA2 (Homo sapiens)
Construct: expressed in transfected cells; host or cells: HEK293T (GBA/GBA2 KO background for the fluorogenic assay; endogenous-GBA background with GBA2 and GBA3 overexpressed for ABPP and intact-cell assays)
Sequence (Q9HCG7 1-927): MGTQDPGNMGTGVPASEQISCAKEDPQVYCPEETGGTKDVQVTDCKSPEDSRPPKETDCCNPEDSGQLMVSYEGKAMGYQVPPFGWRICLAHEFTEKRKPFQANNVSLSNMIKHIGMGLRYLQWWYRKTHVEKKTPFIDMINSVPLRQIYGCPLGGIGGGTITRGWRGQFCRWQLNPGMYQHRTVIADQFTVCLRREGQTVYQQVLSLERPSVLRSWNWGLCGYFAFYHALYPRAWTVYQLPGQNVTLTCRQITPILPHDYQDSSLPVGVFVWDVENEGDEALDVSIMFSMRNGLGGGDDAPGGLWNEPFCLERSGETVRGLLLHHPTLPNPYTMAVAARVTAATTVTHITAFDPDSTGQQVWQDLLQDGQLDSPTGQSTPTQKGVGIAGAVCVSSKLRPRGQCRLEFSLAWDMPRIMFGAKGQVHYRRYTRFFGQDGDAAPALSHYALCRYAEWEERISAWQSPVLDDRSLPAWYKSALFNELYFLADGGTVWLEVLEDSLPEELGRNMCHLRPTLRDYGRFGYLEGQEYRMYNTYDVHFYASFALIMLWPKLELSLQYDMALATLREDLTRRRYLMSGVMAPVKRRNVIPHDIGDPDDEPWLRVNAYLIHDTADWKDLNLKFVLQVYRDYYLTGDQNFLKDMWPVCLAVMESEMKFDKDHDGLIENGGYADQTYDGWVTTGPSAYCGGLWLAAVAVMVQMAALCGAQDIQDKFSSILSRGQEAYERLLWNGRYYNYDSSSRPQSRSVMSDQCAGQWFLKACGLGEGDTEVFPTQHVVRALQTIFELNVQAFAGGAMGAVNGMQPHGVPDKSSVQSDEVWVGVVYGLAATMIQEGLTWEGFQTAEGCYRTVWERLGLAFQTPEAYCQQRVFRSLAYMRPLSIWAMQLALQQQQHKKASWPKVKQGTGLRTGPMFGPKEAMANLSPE
Assay: Fluorogenic substrate enzymatic assay, lysate of GBA/GBA2 KO HEK293T cells overexpressing GBA2
Format: biochemical
Conditions: enzymatic assay performed for 3 h, n=3; read-out: In vitro apparent IC50 GBA2, 3 h
Reported IC50 values follow for various molecules
Assay Endpoint: IC50 (µM)

molecule="O[C@@H]1[C@@H](O)[C@H](O)C[C@H]2N[C@@H]12 [compound 2, β‐D‐xylo‐Cyclophellitol aziridine]" unit_of_measurement=µM data_value=5.31
molecule="O[C@H]1[C@H](O)[C@@H](O)[C@@H]2O[C@@H]2[C@@H]1O [compound 13, Conduritol B‐epoxide, reference compound]" unit_of_measurement=µM data_value=105
molecule="O[C@H]1[C@H](O)[C@@H](O)[C@@H]2N[C@@H]2[C@@H]1O [compound 14, conduritol B‐aziridine, reference compound]" unit_of_measurement=µM data_value=10.8
molecule="O[C@@H]1[C@@H](O)[C@H](O)C[C@H]2O[C@@H]12 [compound 1, xylo‐cyclophellitol]" unit_of_measurement=µM data_value=122

====

target: GBA2 (Danio rerio, UniProt E7F5W0); assay: In vivo inhibition in zebrafish larvae, read out by cABPP with ABP 10, GBA2; set-up: species or system zebrafish (Danio rerio); conditions: larvae exposed to 5 dpf, inhibitor in the medium, cABPP quantification; read-out: Zebrafish larvae IC50 GBA2
Sequence (E7F5W0 entry or part of it): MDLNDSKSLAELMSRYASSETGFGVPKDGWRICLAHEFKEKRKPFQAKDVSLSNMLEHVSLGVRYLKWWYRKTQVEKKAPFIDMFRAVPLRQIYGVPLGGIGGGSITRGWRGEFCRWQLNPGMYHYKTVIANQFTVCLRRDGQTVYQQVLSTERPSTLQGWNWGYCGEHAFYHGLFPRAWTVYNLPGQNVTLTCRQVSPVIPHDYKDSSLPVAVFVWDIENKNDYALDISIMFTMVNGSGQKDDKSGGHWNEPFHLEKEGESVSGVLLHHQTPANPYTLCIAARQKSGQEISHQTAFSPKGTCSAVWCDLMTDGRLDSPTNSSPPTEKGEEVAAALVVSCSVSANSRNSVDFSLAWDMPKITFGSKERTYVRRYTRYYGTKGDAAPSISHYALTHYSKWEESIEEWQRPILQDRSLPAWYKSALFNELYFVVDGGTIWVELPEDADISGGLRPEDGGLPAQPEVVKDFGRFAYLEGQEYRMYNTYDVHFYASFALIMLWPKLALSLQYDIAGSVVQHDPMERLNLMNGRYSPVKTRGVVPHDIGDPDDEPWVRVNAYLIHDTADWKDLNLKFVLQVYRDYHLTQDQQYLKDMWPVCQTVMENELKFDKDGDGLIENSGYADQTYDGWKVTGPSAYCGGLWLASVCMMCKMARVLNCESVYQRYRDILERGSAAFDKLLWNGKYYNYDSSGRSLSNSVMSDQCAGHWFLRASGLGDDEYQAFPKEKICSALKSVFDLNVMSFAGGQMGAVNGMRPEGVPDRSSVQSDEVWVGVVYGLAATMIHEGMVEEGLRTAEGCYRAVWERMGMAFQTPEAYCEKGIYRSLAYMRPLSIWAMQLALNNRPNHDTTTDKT
Assay Endpoint: IC50

compound="O[C@@H]1[C@@H](O)[C@H](O)C[C@H]2O[C@@H]12 [compound 1, xylo‐cyclophellitol]" data_value="> 150 µM"

====

molecular target: rhGBA (recombinant human GBA, Imiglucerase) (Homo sapiens, UniProt P04062, R534H); construct: purchased Sanofi Genzyme (Cambridge, MA, USA); test: Fluorogenic substrate (4-MU-β-D-glucoside) enzymatic assay, rhGBA; type: biochemical; conditions: incubation time 30 min; enzymatic assay; ±SD, n=3; read-out: In vitro apparent IC50 rhGBA
Reported IC50 values follow for various compounds
Assay Endpoint: IC50 (nM)

compound=O[C@@H]1[C@@H](O)[C@H](O)C[C@H]2N[C@@H]12 unit_of_measurement=nM data_value=719
compound="CN1/C(=C/C=C/C=C/C2=[N+](CCCCCC(=O)NCc3cn(CCCCCCCCN4[C@H]5[C@H](O)[C@@H](O)[C@H](O)C[C@H]54)nn3)c3ccccc3C2(C)C)C(C)(C)c2ccccc21 (stereo partly drawn)" unit_of_measurement=nM data_value=6.44
compound="O=C(CCCCC1SCC2NC(=O)NC21)NCc1cn(CCCCCCCCN2C3CC(O)C(O)C(O)C32)nn1 (stereo not drawn)" unit_of_measurement=nM data_value=164
compound=OC[C@@H]1[C@@H](O)[C@H](O)[C@@H](O)[C@@H]2O[C@H]12 unit_of_measurement=nM data_value=400
compound=O[C@@H]1[C@@H](O)[C@H](O)C[C@H]2O[C@@H]12 unit_of_measurement=nM data_value=2670
compound="CN1/C(=C/C=C/C=C/C2=[N+](CCCCCC(=O)NCc3cn(C[C@@H]4[C@@H](O)[C@H](O)[C@@H](O)[C@@H]5O[C@H]45)nn3)c3ccccc3C2(C)C)C(C)(C)c2ccccc21 [ABP 9, reference compound]" unit_of_measurement=nM data_value=45.2

====

Reported IC50 values follow for various compounds
molecular target: GBA3 (Homo sapiens); construct: expressed in transfected cells; host or cells: HEK293T (GBA/GBA2 KO background for the fluorogenic assay; endogenous-GBA background with GBA2 and GBA3 overexpressed for ABPP and intact-cell assays); assay: Fluorogenic substrate enzymatic assay, lysate of GBA/GBA2 KO HEK293T cells overexpressing GBA3; assay type: biochemical; conditions: incubation time 30 min; enzymatic assay; ±SD, n=3; read-out: In vitro apparent IC50 GBA3
Assay Endpoint: IC50 (µM)

compound="CN1/C(=C/C=C/C=C/C2=[N+](CCCCCC(=O)NCc3cn(CCCCCCCCN4[C@H]5[C@H](O)[C@@H](O)[C@H](O)C[C@H]54)nn3)c3ccccc3C2(C)C)C(C)(C)c2ccccc21 (some centres unmarked)" unit_of_measurement=µM value_comparator== data_value=10.1
compound="CN1/C(=C/C=C/C=C/C2=[N+](CCCCCC(=O)NCc3cn(CCCCCCCCN4[C@@H]5[C@H](CO)[C@@H](O)[C@H](O)[C@@H](O)[C@@H]54)nn3)c3ccccc3C2(C)C)C(C)(C)c2ccccc21 (some centres unmarked) [ABP 10, reference compound]" unit_of_measurement=µM value_comparator== data_value=0.00854
compound="O[C@H]1[C@H](O)[C@@H](O)[C@@H]2O[C@@H]2[C@@H]1O [compound 13, Conduritol B‐epoxide, reference compound]" unit_of_measurement=µM value_comparator=> data_value=500
compound=O[C@@H]1[C@@H](O)[C@H](O)C[C@H]2N[C@@H]12 unit_of_measurement=µM value_comparator=> data_value=25
compound=O[C@@H]1[C@@H](O)[C@H](O)C[C@H]2O[C@@H]12 unit_of_measurement=µM value_comparator=> data_value=50
compound="OC[C@@H]1[C@@H](O)[C@H](O)[C@@H](O)[C@@H]2N[C@H]12 [compound 4, cyclophellitol aziridine, reference compound]" unit_of_measurement=µM value_comparator== data_value=33.8
compound="[N-]=[N+]=NCCCCCCCCN1[C@H]2[C@H](O)[C@@H](O)[C@H](O)C[C@H]21 (some centres unmarked)" unit_of_measurement=µM value_comparator== data_value=0.583
compound=OC[C@@H]1[C@@H](O)[C@H](O)[C@@H](O)[C@@H]2O[C@H]12 unit_of_measurement=µM value_comparator== data_value=51.5
compound="CC1=CC(C)=[N+]2C1=C(CCCCc1cn(CCCCCCCCN3[C@H]4[C@H](O)[C@@H](O)[C@H](O)C[C@H]43)nn1)c1c(C)cc(C)n1[B-]2(F)F (some centres unmarked)" unit_of_measurement=µM value_comparator== data_value=0.522
compound="O=C(CCCCC1SCC2NC(=O)NC21)NCc1cn(CCCCCCCCN2C3CC(O)C(O)C(O)C32)nn1 (centres unmarked)" unit_of_measurement=µM value_comparator== data_value=25.3
compound="CN1/C(=C/C=C/C=C/C2=[N+](CCCCCC(=O)NCc3cn(C[C@@H]4[C@@H](O)[C@H](O)[C@@H](O)[C@@H]5O[C@H]45)nn3)c3ccccc3C2(C)C)C(C)(C)c2ccccc21 [ABP 9, reference compound]" unit_of_measurement=µM value_comparator== data_value=5.78
